Data credit: patent US20240247080A1

# target.entity: T1, NPY2 receptor (human (printed as hNPY2R), UniProt P49146 1-381)
# T1 sequence (looked up): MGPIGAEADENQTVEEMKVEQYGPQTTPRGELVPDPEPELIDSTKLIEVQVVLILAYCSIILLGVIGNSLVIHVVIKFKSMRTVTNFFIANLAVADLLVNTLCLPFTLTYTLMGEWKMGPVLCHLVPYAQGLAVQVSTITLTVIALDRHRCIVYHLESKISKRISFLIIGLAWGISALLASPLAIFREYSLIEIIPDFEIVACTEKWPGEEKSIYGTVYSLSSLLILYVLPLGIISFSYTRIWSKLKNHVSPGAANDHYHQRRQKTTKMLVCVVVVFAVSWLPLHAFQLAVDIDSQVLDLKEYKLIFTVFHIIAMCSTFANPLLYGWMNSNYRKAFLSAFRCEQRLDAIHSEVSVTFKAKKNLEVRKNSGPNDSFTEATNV
# assay.overview: cell-based or functional assay
Starred links: 1 amine or outer side, 2 acyl side, 3 side chain; linkers in the order of their positions; H or OH if unused. Non-standard residues stand in square brackets, D forms with d. Groups on a side chain read outwards from the residue. No end group written: not given here. *: point of attachment. C18 diacid = O=C(O)CCCCCCCCCCCCCCCCC(=O)*; γGlu = O=C(O)[C@H](CCC(=O)[*:2])N[*:1]; AEEA = NCCOCCOCC(=O)O; Aib = CC(C)(N)C(=O)O
recorded.endpoint: EC50 hNPY2R 100% hP (CreLuc) (nM)
Give bare numbers, in nM.

>>> recorded_value("Y[Aib]EGTFTSDYSI[Aib]LEKQAQ[Aib]AFVEWLIK([AEEA-AEEA-γGlu-γGlu-γGlu-γGlu-C18 diacid])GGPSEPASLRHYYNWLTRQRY-NH2 (also: TFA salt) [Compound 256]")
27

# ---- query binder ----
// recorded EC50 hNPY2R 100% hP (CreLuc) for YXEGTFTSDYSIXLEKQAQXEFVEWLIKGGPSSGASLRHYYNWLTRQRY (Aib at 2, 13, 20; K28 side chain carries C20DA-gGlu-gGlu-gGlu-gGlu-gGlu-gGlu-eLys; C-terminal amide) [Compound 215] : 22.5
